Assay: Tmax in BALB/c mouse at 5 mg/kg, po measured upto 24 hrs by LC-MS/MS analysis
Type: ADME, organism-based
Conditions: in vivo
MEASURED ATTRIBUTE: Tmax
Quick note: number first, unit second.

// query What does the record list as Tmax for OCCN1CCC[C@@H](Nc2nnc(-c3ccc4occc4c3O)c3c2C2CCC3CC2)C1 ?
// result 1.83 h

----------
Assay: AUC(0 to t) in BALB/c mouse at 5 mg/kg, iv measured upto 24 hrs by LC-MS/MS analysis
Format: ADME, organism-based
Details: in vivo
MEASURED ATTRIBUTE: AUC(0-t) at 24 h

// query What does the record list as AUC(0-t) at 24 h for OCCN1CCC[C@@H](Nc2nnc(-c3ccc4occc4c3O)c3c2C2CCC3CC2)C1 ?
// result 9520 ng·h/mL
